Exercise: for every item that follows, state its recorded Percent Effect.
system: Wolbachia pipientis; experiment: Anti-Wolbachia Cell-Based Screen; format: functional; design: scale not given: in the data most compounds retested in dose-response had high values; details: 5 µM
About 13,000 (27%) of roughly 48,000 compounds showed an effect of 50% or more. The list shows a part of the results.
Answers are plain numbers, in %.

Below, each entry is followed by its recorded Percent Effect result.
Compound | Percent Effect (%)
Cn1c(=O)oc2ccc(NC(=O)N3CCSCC3)cc21 | -14.24
Cn1cc(C#N)cc1C(=O)NC1(C#N)CCSCC1 | -2.619

Hey, quick one: what's Percent Effect for each of these?
1. CCCc1nc(C)cc(NCc2ccc(S(N)(=O)=O)cc2)n1
2. Cc1cc(C(=O)NCc2cccnc2OC(C)C)no1
3. O=c1[nH]nc2c(S(=O)(=O)N3CCCC3)cccn12
4. Cc1nc(C(=O)N2CCCC2c2c(C)nn(C)c2C)ccc1C#N (configuration not stated)
5. COc1ccc(CNC(=O)NCc2cc(C)oc2C)cc1
6. O=C(NC1CC1)c1nc2c(o1)CN(c1ncccn1)C2

1: 98.3; 2: -0.04653; 3: 132.4; 4: -5.29; 5: 2.864; 6: -9.105

====

tested on: Wolbachia pipientis; test: Anti-Wolbachia Cell-Based Screen; assay type: functional; parameters: scale not given: in the data most compounds retested in dose-response had high values; details: 5 µM
In all, about 48,000 compounds went through this assay and about 13,000 (27%) showed an effect of 50% or more. This is one part of the list.
Readout: Percent Effect (%)
One number for each entry, in %.

Compound | Percent Effect [%]
C[C@@H]1CN(Cc2ccccn2)C[C@]12CCN(Cc1cccnc1)C2=O.O=C(O)C(F)(F)F.O=C(O)C(F)(F)F.O=C(O)C(F)(F)F | 86.67
O=C(NC1CC1)C1CCN(c2cccc(C(F)(F)F)n2)CC1 | -5.657

Give Percent Effect for all compounds that follow.
1. CC(Cn1cccn1)NCc1nc(-c2ccc3c(c2)OCO3)no1 (configuration not stated)
2. CCN(Cc1nc(C(C)C)no1)Cc1cccs1
3. Cc1ccc(-c2nc(CN3CCn4c(nnc4C4CC4)C3)no2)cc1

1. -6.149
2. 12.81
3. -10.52

Please state, for each entry, its recorded Percent Effect.
1. O=S1(=O)C[C@@H]2[C@H](C1)N(Cc1ncc[nH]1)CCN2CC1CC1
2. CCSc1ccc(NC(=O)NC(C)c2c(C)noc2C)cn1 (configuration not stated)

[-14.64, -11.22]

Parameters: items (list). Returns: Percent Effect for each item.
1. Cn1ccnc1CN1CCN(CC2CC2)[C@@H]2CS(=O)(=O)C[C@@H]21
2. OCCN(Cc1nc(-c2ccc3c(c2)OCO3)no1)Cc1cccs1
3. CC(C)=CCN1CCN(Cc2nc3ccccc3[nH]2)[C@H]2CS(=O)(=O)C[C@H]21
4. Cc1ncsc1CN1CCN(C)C2(CCC(=O)N(CCO)CC2)C1 (configuration not stated)
5. O=C(c1cccnc1)N1C[C@@H]2CN(CCN3CCCC3)C(=O)[C@@H]2C1
6. c1cc(CN2CCC(n3cc(CN4CCCC4)nn3)CC2)cs1
7. COCCN(Cc1ccccc1)Cc1nc(-c2ccsc2)no1
8. C[C@H]1CN(c2ccccn2)C[C@@]12CCN(Cc1cccnc1)C2=O.O=C(O)C(F)(F)F.O=C(O)C(F)(F)F

106.1
121.2
-9.753
-3.684
-1.372
0.307
2.788
111.4

Value source: ChEMBL document CHEMBL3988442
